Target: Pdr3 (UniProt P33200)
Sequence: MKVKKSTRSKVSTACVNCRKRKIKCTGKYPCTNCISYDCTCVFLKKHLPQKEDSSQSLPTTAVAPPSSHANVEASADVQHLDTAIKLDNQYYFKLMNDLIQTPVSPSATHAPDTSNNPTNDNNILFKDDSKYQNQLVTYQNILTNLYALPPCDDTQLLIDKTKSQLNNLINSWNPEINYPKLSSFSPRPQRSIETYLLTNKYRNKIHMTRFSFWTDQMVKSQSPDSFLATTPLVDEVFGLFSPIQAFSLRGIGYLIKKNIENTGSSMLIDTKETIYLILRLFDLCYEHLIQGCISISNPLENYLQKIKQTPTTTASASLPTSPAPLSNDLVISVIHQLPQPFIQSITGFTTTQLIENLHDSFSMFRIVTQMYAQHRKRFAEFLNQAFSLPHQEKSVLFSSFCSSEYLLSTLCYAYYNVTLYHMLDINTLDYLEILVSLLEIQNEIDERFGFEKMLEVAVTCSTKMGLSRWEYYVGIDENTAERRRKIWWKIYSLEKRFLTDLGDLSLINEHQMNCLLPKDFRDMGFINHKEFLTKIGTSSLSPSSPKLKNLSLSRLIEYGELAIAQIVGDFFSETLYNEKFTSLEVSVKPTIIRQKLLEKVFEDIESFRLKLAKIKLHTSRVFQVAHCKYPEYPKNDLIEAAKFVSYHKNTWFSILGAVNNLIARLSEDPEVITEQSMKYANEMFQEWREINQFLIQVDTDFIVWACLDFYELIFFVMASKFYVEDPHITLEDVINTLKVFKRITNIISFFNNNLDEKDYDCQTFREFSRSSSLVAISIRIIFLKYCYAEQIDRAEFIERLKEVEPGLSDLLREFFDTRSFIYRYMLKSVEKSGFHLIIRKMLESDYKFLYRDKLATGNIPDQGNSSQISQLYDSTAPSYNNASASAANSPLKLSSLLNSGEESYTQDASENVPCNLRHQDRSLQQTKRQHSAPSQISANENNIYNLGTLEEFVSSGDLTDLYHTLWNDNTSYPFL
Assay: PBM E-score (8-mer binding enrichment) (E-score (-0.5 to 0.5)); higher = stronger / more preferred TF binding
Conditions: protein concentration: 200 nM; construct: GST-full length
The full ranking holds about 33,000 sequences; the median of “E-score (-0.5 to 0.5)” is about -0.035, and the highest 2% start at about 0.35. For the sample, the highest values were picked, then their nearest neighbours and some sequences at random.
observation.type: PBM E-score

1) CGGGCGGC: 0.291

Exercise: Give its PBM E-score value. Item: AAGTGCAC
Key: 0.0238

Exercise: Request the reported PBM E-score associated with ATAAGGTG
Key: -0.0163
